# system_tested: Bcl-xL, Q07817
# Sequence (Q07817 1-209): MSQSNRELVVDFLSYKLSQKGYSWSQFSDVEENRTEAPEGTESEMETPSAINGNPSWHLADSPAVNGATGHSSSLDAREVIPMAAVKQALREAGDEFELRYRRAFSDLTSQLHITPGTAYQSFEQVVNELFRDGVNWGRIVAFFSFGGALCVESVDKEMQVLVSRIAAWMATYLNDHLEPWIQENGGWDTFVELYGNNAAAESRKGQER
# assay_procedure: peptide SPOT array, c-Myc-tagged receptor at 1 uM or 100 nM, anti-c-Myc-Cy3
Could you please report measured SPOT signal as a fraction of Bim BH3's signal on the same receptor and array for the items listed next?
Enter a number only.

Input: Find the measured SPOT signal as a fraction of Bim BH3's signal on the same receptor and array of SFLSAHCASHLAWFGDSLTSLSQRLQ [TMEM214] and report it.
Output: 0.09

Input: Provide only the value of recorded SPOT signal as a fraction of Bim BH3's signal on the same receptor and array for PSECETLGSNLGHNADLLNENNILAK [ZFP90]
Output: 0.09

Input: Given the binder CDLLGAKGKDILYIGDHIFGDILKSK [NT5C2] , write its reported SPOT signal as a fraction of Bim BH3's signal on the same receptor and array.
Output: 0.04
